System: HeLa cells
MEASUREMENT NOTES: Cell cycle assay in HeLa cells
Format: cell-based, human
STATED CONDITIONS: HeLa cells, 150 nM oligomeric compound, 24 hours, relative to untreated control (UTC = 100)
In the oligonucleotide strings, read from the 5' end, every base follows the letter of its sugar. An asterisk marks phosphorothioate; unmarked linkages are phosphodiester. Other units and linkages are bracketed, terminal groups are in braces. A string of capitals states the bases alone. e = 2'-O-(2-methoxyethyl) (MOE); [5mC] = 5-methylcytosine; d = 2'-deoxy (DNA)
QUANTITY NAME: % cells in cell cycle phase subG1 (%)
Could you give me the number in %? Just the number is fine.

Here is how some substances turned out for % cells in cell cycle phase subG1.
{"columns": ["SUBSTANCE", "VALUE UNITS", "% cells in cell cycle phase subG1"],
 "data": [
  ["328396 (antisense e[5mC]*eT*eG*eG*eT*dT*dG*dG*dG*dT*dA*dT*dG*dA*dG*eA*e[5mC]*eA*eG*eA) [compound 328396]", "%", 97],
  ["328780 (antisense eT*eG*eT*e[5mC]*eA*dT*dG*dG*dA*d[5mC]*dA*dG*dG*dA*dT*eG*eA*eA*eT*eA) [compound 328780]", "%", 124],
  ["328674 (eT*eG*e[5mC]*e[5mC]*e[5mC]*dT*dG*d[5mC]*dT*d[5mC]*dA*dG*dA*dG*d[5mC]*e[5mC]*e[5mC]*eT*eA*eG; antisense) [compound 328674]", "%", 564],
  ["327919 (antisense eG*eA*eA*eA*e[5mC]*e[5mC]*e[5mC]*eA*eG*e[5mC]*eA*eG*eA*e[5mC]*eA*eA*eT*eG*eT*eA*eG*e[5mC]*eT) [compound 327919]", "%", 85]
]}

Now look at this one.
Enquiry: Query: % cells in cell cycle phase subG1; subject: 327889 (antisense eG*eT*eG*eG*eT*eA*eA*eT*e[5mC]*e[5mC]*e[5mC]*eT*eG*eG*e[5mC]*eA*eA*eT*eG*eT*eG*eA*eT) [compound 327889]
Return: 122

---

Tested on: HeLa cells
MEASUREMENT NOTES: Cell cycle assay in HeLa cells
Type: cell-based, human
STATED CONDITIONS: HeLa cells, 25 nM, 48 hours; percentage of cells in phase, average of replicates
In the oligonucleotide strings, read from the 5' end, every base follows the letter of its sugar. An asterisk marks phosphorothioate; unmarked linkages are phosphodiester. Other units and linkages are bracketed, terminal groups are in braces. A string of capitals states the bases alone. e = 2'-O-(2-methoxyethyl) (MOE); [5mC] = 5-methylcytosine; d = 2'-deoxy (DNA)
Recorded measurements of % cells in cell cycle phase: G1, one per entry
Unit % implied. Number only.

Enquiry: Give the measured % cells in cell cycle phase: G1 of 328383 (eA*eG*eA*eG*eG*dG*dG*dA*dG*dA*d[5mC]*dG*dA*dG*dA*eG*e[5mC]*eA*e[5mC]*eT) [compound 328383] .
Return: 57

Enquiry: Let us now turn to 327905 (antisense e[5mC]*eA*eG*eA*e[5mC]*eT*e[5mC]*e[5mC]*eG*eG*eT*eG*eG*eA*eA*eT*eG*eA*eA*eG*eG*eA) [compound 327905]
Return: 57

Enquiry: Another substance to check: 328403 (antisense eA*eG*eG*e[5mC]*e[5mC]*dT*dA*dT*dT*d[5mC]*d[5mC]*dT*dG*dT*dA*eG*e[5mC]*eA*eA*eA) [compound 328403]
Return: 58

Enquiry: Now give it for 327902 (antisense eG*eG*e[5mC]*eT*eG*eT*e[5mC]*eA*eA*eT*eT*e[5mC]*eA*eT*eA*eG*eG*eT*e[5mC]*eA*eG) [compound 327902] too.
Return: 57

Where do these numbers come from? They come from patent US8178506B2.
